- study system: human L1 reverse transcriptase (MBP-RT fusion) (Homo sapiens)
- Construct: Human L1 ORF2 amino acid 238-1061 was inserted behind MBP gene in frame; made in house; host or cells: E. coli BL21
- procedure text: In vitro (cell-free) RT assay and kinetic analysis with recombinant L1 RT
- Format: biochemical
- condition description: calculated as IC50 = Ki(1+ S/Km); read-out: IC50 against L1 RT
pIC50: −log10 of the molar value.
measurement name: pIC50

The examples below pair each entry with its known result.
- compound: "Nc1ccn([C@H]2CC[C@@H](COP(=O)(O)OP(=O)(O)OP(=O)(O)O)O2)c(=O)n1 [ddCTP, 2'-3'-dideoxycytidine triphosphate]"
  result number: 8.98
- compound: "Nc1ccn([C@@H]2CS[C@H](COP(=O)(O)OP(=O)(O)OP(=O)(O)O)O2)c(=O)n1"
  result number: 7.73

(I) Cc1cn([C@H]2C=C[C@@H](COP(=O)(O)OP(=O)(O)OP(=O)(O)O)O2)c(=O)[nH]c1=O
(II) Cc1cn([C@H]2C[C@H](N=[N+]=[N-])[C@@H](CO[P@](=O)(O)O[P@](=O)(O)OP(=O)(O)O)O2)c(=O)[nH]c1=O [AZTTP, azidothymidine triphosphate]
Exercise: Problem: Given the entries I and II , determine which has the lower reported pIC50. Identify your pick by its label.
Key: II
(II: 7.70, I: 9.06)
